The measurements presented in this section are drawn from patent US20110044938A1.

- Test system: subclones of RKO colon adenocarcinoma cells (RKOp27 or RKOp21) arrested by Ponasterone A
- Measurement Notes: Alamar Blue cell viability assay, cell cycle specific mode of action: cells arrested by ectopic p27Kip1 induced by Ponasterone A versus proliferating cells
- Type: cell-based
- Particulars: Homo sapiens, RKO p27 induced (arrested) cells, 10 μM Ponasterone A, 72 hours, value = class bound given in Table A, read-out: −logIC50 RKO p27 induced (arrested) (converted)
Observed Property: IC50

# Compound, Reported
rows = [
    ("CC(CC(=O)Nc1sc2c(c1C#N)CCC(COC(=O)N1CCCC1)C2)c1ccccn1 (stereo not shown) [Example 371]", "≥ 50.1 µM"),
    ("N#Cc1c(NC(=O)/C=C/c2cccnc2)sc2c1CCC(OC(=O)NCCc1cccnc1)C2 (stereo not shown) [Example 36]", "≥ 50.1 µM"),
    ("CCOc1ccccc1CCC(=O)Nc1sc2c(c1C#N)CCC(OC(=O)NCc1ccncc1)C2 (stereo not shown) [Example 171]", "≥ 50.1 µM"),
]

# evaluate next
Query: Using the record for COc1cccc(CCC(=O)Nc2sc3c(c2C#N)CCC(COC(=O)N2CCOCC2)C3)c1 (stereo not shown) [Example 245] , report its IC50.
Response: ≥ 100 µM
